Recorded av Z values for a group of compounds are listed next.
Biological target: tau (Homo sapiens, UniProt P10636)
Sequence (P10636 623-695 limits assumed): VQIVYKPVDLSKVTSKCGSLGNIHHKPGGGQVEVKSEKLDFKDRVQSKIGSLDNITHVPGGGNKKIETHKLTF
Test: MCE Phenols Library screening, tau biosensor cell seeding assay (AvZ)
Assay type: cell-based
Settings: average Z score of two replicates, Phenols Library screen
Respond with the number and no other words.

Q: Please give the documented av Z of CC(C)(c1ccc(O)cc1)c1ccc(O)cc1 [Bisphenol A]
Result: 0.104

Q: State, in one line, measured av Z of O=C(/C=C/c1ccc(O)c(O)c1)O[C@@H]1C[C@](O)(C(=O)O)C[C@@H](OC(=O)/C=C/c2ccc(O)c(O)c2)[C@H]1O [Isochlorogenic acid A]
Result: 0.046

Q: Note down av Z recorded for C[C@H]1CCCC(=O)CCC/C=C/c2cc(O)cc(O)c2C(=O)O1 [Zearalenone]
Result: 0.044

Q: State, in one line, measured av Z of COc1cc(O)c2c(c1)O[C@H](c1ccc(O)cc1)CC2=O [Sakuranetin]
Result: -0.004

Q: Supply measured av Z of O=C(OCC1=C[C@@H](O)[C@@H]2C=CO[C@@H](O[C@@H]3O[C@H](CO)[C@@H](O)[C@H](O)[C@H]3O)[C@H]12)c1ccc(O)cc1 [Agnuside] in your reply.
Result: -0.004

Q: # return recorded av Z for entry OC[C@H]1O[C@@H](Oc2ccc(O)cc2)[C@H](O)[C@@H](O)[C@@H]1O [Arbutin]
Result: -0.166

Q: Give the measured av Z for CC(=O)c1c(C)cc2cccc(O)c2c1O [Nepodin]
Result: -0.118

Q: For COc1cc(O)c(C(=O)/C=C/c2ccc(O)cc2)cc1CC=C(C)C [4'-O-Methylbavachalcone] , write its av Z.
Result: -0.041

Q: Hello, please tell me recorded av Z for this one: COc1ccc(CCO[C@@H]2O[C@H](CO[C@@H]3O[C@H](CO)[C@H](O)[C@H](O)[C@H]3O)[C@@H](OC(=O)/C=C/c3ccc(O)c(OC)c3)[C@H](O[C@@H]3O[C@@H](C)[C@H](O)[C@@H](O)[C@H]3O)[C@H]2O)cc1O [Jionoside B1]
Result: -0.118
